Overview of recorded Binding Level sample 2 - sample 1 (RU) for various binders
Target: T1, recombinant human OX40L (extracellular domain, R&D Systems) (human, UniProt P23510 51-183)
T1 construct: also called hOX40L; rec. hOX40L
T1 sequence: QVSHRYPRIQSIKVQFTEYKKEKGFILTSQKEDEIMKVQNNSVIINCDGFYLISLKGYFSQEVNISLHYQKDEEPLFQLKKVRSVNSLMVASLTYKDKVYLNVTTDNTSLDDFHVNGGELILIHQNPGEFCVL
Experiment: SPR, second injection after competitor OX40L19D08
Experimental: In addition, it was investigated to what extend the 7 anti-OX40L Nanobodies have a different or identical or overlapping epitope. Standard conditions were as described above. […] 1300 RU. A dual injection was performed at 10 μl/min for 2 min, starting with 500 nM of the first Nanobody, followed by 500 nM of the second Nanobody. After 10 min dissociation, regeneration of the surface was performed by injection of 50 mM NaOH for 5-20 sec at 100 μl/min.

binder: OX40L01E10 (VHH, monovalent Nanobody from E. coli; not shown: C-terminal c-myc and His6 tag) VHH: EVQLVESGGGLVQAGDSLRLSCAASGLTFSSFAMGWFRQAPGKEREFVAAISRSGYGTSEADSVRDRFIISRDNAKNTVTLHLSRLKPEDTAVYYCAAEHTLGRPSRSQINYLYWGQGTQVTVSS
Binding Level sample 2 - sample 1 (RU): -13 RU

binder: OX40L19D08 (VHH, monovalent Nanobody from E. coli; not shown: C-terminal c-myc and His6 tag) VHH: EVQLVESGGGLVQAGASLRLSCAASGRRFISNYAMGWFRQAPGQERAFVAAISRSGSITYYTDSVKGRFSISRDYAKSTVYLQMDNLKPEDTAVYYCAADGGAVRDLTTNLPDYWGRGTQVTVSS
Binding Level sample 2 - sample 1 (RU): 7 RU

binder: OX40L15B07 (VHH, monovalent Nanobody from E. coli; not shown: C-terminal c-myc and His6 tag) VHH: EVQLVESGGGLVQAGGSLRLSCAASRSIGRLDRMGWYRHRTGEPRELVATITGGSSINYGDFVKGRFTISIDNAKNTVYLQMNNLKPEDTAVYYCNFNKYVTSRDTWGQGTQVTVSS
Binding Level sample 2 - sample 1 (RU): -7 RU

binder: OX40L01B11 (VHH, monovalent Nanobody from E. coli; not shown: C-terminal c-myc and His6 tag) VHH: EVQLVESGGGLVQAGGSLRLSCVASGRSFSTYIMGWFRQAPGKEREFVATISRSGITTRSADSVKGRFTISRDNAKNTVYLQMNSLKPEDTAVYYCAAGPYVEQTLGLYQTLGPWDYWGQGTQVTVSS
Binding Level sample 2 - sample 1 (RU): 205 RU

binder: OX40L19A07 (VHH, monovalent Nanobody from E. coli; not shown: C-terminal c-myc and His6 tag) VHH: EVQLVESGGGLVQAGGSLRLSCAASGFTLDDYAIAWFRQAPGKEREGVSRIKISNGRTTYAGSVKGRFTISSDNAKNTVYLQMNSLNAEDTAVYYCAADRSSLLFGSNWDRKARYDYWGQGTQVTVSS
Binding Level sample 2 - sample 1 (RU): -24 RU
